Tested on: Pseudomonas aeruginosa
Experiment: MIC against clinical isolates
Format: cell-based
Details: Table 6-3, clinical isolate; unit assumed
Checkbox rule: MIC Pseudomonas aeruginosa GN 82 lower than 50 µg/mL = TRUE; MIC Pseudomonas aeruginosa GN 82 not lower than 50 µg/mL = FALSE.

Reference set, count: 2
CCN1CCN(C(=O)NC(C(=O)NC2C(=O)N3C(C(=O)O)=C(CSc4nncs4)CSC23)c2ccc(O)cc2)C(=O)C1=O (single isomer, unassigned) [Compound No. 79] : TRUE
CCN1CCN(C(=O)NC(C(=O)NC2C(=O)N3C(C(=O)O)=C(CSc4nnnn4CC)CSC23)c2ccccc2)C(=O)C1=O (single isomer, unassigned) [Compound No. 77] : TRUE

Query :: Identify whether the compound CCN1CCN(C(=O)NC(C(=O)NC2C(=O)N3C(C(=O)O)=C(CSc4nnnn4CC)CSC23)c2ccc(O)cc2)C(=O)C1=O (single isomer, unassigned) [Compound No. 78] records MIC Pseudomonas aeruginosa GN 82 below 50 µg/mL.
Result :: TRUE

Query :: Identify whether the compound CCCCN1CCN(C(=O)NC(C(=O)NC2C(=O)N3C(C(=O)O)=C(CSc4nnnn4C)CSC23)c2ccccc2)C(=O)C1=O (single isomer, unassigned) [Compound No. 73] records MIC Pseudomonas aeruginosa GN 82 below 50 µg/mL.
Result :: TRUE

====

System: Escherichia coli
Test: MIC against clinical isolates
Format: cell-based
Details: Table 5-2, clinical isolate; unit assumed
property name: MIC Escherichia coli K-2 (mg/L)
Give the number; mg/L is assumed, so skip it.

// below: answered molecules
CN1CCN(C(=O)NC(C(=O)NC2C(=O)N3C2SC(C)(C)C3C(=O)O)c2ccccc2)C(=O)C1=O (single isomer, unassigned) : 6.25
CCCCCN1CCN(C(=O)NC(C(=O)NC2C(=O)N3C2SC(C)(C)C3C(=O)O)c2ccccc2)C(=O)C1=O (single isomer, unassigned) : 1.57
CCCCCCCCN1CCN(C(=O)N[C@@H](C(=O)N[C@@H]2C(=O)N3[C@@H]2SC(C)(C)[C@@H]3C(=O)O)c2ccccc2)C(=O)C1 : 3.13
CCCCN1CCN(C(=O)NC(C(=O)NC2C(=O)N3C2SC(C)(C)C3C(=O)O)c2ccccc2)C(=O)C1=O (single isomer, unassigned) : 1.57
CCCCCCN1CCN(C(=O)N[C@@H](C(=O)N[C@@H]2C(=O)N3[C@@H]2SC(C)(C)[C@@H]3C(=O)O)c2ccccc2)C(=O)C1 : 6.25

Query :: Reported MIC Escherichia coli K-2 for CC1(C)S[C@@H]2[C@H](NC(=O)C(c3ccccc3)S(=O)(=O)O)C(=O)N2[C@H]1C(=O)O (stereo partly drawn) [Sodium Sulbenicillin, reference compound] : what is it?
Result :: 12.5

====

System: Pseudomonas aeruginosa
Assay: MIC against clinical isolates
Type: cell-based
Conditions: Table 6-3, clinical isolate; unit assumed
property name: MIC Pseudomonas aeruginosa GN 376 (µg/mL)
Give the number; µg/mL is assumed, so skip it.

CCN1CCN(C(=O)NC(C(=O)NC2C(=O)N3C(C(=O)O)=C(CSc4nnnn4CC)CSC23)c2ccccc2)C(=O)C1=O (single isomer, unassigned) : 25
Cn1nnnc1SCC1=C(C(=O)O)N2C(=O)C(NC(=O)C(NC(=O)N3CCN(CCO)C(=O)C3=O)c3ccccc3)C2SC1 (single isomer, unassigned) : 25
CCCCCCCCN1CCN(C(=O)N[C@@H](C(=O)NC2C(=O)N3C(C(=O)O)=C(CSc4nnnn4C)CSC23)c2ccccc2)C(=O)C1=O (single isomer, unassigned) : 50
CCN1CCN(C(=O)NC(C(=O)NC2C(=O)N3C(C(=O)O)=C(CSc4nncs4)CSC23)c2ccc(O)cc2)C(=O)C1=O (single isomer, unassigned) : 6.25
CCCCN1CCN(C(=O)NC(C(=O)NC2C(=O)N3C(C(=O)O)=C(CSc4nnnn4C)CSC23)c2ccccc2)C(=O)C1=O (single isomer, unassigned) : 12.5

Query :: Reported MIC Pseudomonas aeruginosa GN 376 for CC(=O)OCC1=C(C(=O)O)N2C(=O)C(NC(=O)C(NC(=O)N3CCN(C)C(=O)C3=O)c3ccccc3)C2SC1 (single isomer, unassigned) : what is it?
Result :: 50

====

Test system: Klebsiella pneumoniae
Experiment: MIC against clinical isolates
Type: cell-based
Settings: Table 6-4, clinical isolate; unit assumed
property name: MIC Klebsiella pneumoniae GN 917 (µg/mL)
Give the number; µg/mL is assumed, so skip it.

// below: answered molecules
Cc1nnc(SCC2=C(C(=O)O)N3C(=O)[C@@H](NC(=O)Cn4cnnn4)[C@H]3SC2)s1 [Sodium Cephazolin, reference compound] : 1.56
CCCCCCCCN1CCN(C(=O)N[C@@H](C(=O)NC2C(=O)N3C(C(=O)O)=C(CSc4nnnn4C)CSC23)c2ccccc2)C(=O)C1=O (single isomer, unassigned) [Compound No. 74] : 1.56

Query :: Reported MIC Klebsiella pneumoniae GN 917 for CCN1CCN(C(=O)NC(C(=O)NC2C(=O)N3C(C(=O)O)=C(CSc4nnnn4CC)CSC23)c2ccccc2)C(=O)C1=O (single isomer, unassigned) [Compound No. 77] : what is it?
Result :: 1.56

Query :: Reported MIC Klebsiella pneumoniae GN 917 for CCCCN1CCN(C(=O)NC(C(=O)NC2C(=O)N3C(C(=O)O)=C(CSc4nnnn4C)CSC23)c2ccccc2)C(=O)C1=O (single isomer, unassigned) [Compound No. 73] : what is it?
Result :: 0.78

====

Tested on: Staphylococcus aureus
Experiment: MIC against clinical isolates
Format: cell-based
Details: Table 6-1, clinical isolate; unit assumed
List of MIC Staphylococcus aureus MS 8684 values.
Give the number; µg/mL is assumed, so skip it.

// below: answered compounds
CCCCCCCCN1CCN(C(=O)N[C@@H](C(=O)NC2C(=O)N3C(C(=O)O)=C(CSc4nnnn4C)CSC23)c2ccccc2)C(=O)C1=O (single isomer, unassigned) : 0.78
Cn1nnnc1SCC1=C(C(=O)O)N2C(=O)C(NC(=O)C(NC(=O)N3CCN(CCO)C(=O)C3=O)c3ccccc3)C2SC1 (single isomer, unassigned) : 1.56
CCCCN1CCN(C(=O)NC(C(=O)NC2C(=O)N3C(C(=O)O)=C(CSc4nnnn4C)CSC23)c2ccccc2)C(=O)C1=O (single isomer, unassigned) : 1.56

Now for a further compound.
Query :: Reported MIC Staphylococcus aureus MS 8684 for CCN1CCN(C(=O)NC(C(=O)NC2C(=O)N3C(C(=O)O)=C(CSc4nncs4)CSC23)c2ccc(O)cc2)C(=O)C1=O (single isomer, unassigned) : what is it?
Result :: 1.56

====

Tested on: Klebsiella pneumoniae
Assay: MIC against clinical isolates
Assay type: cell-based
Settings: Table 5-4, clinical isolate; unit assumed
property name: MIC Klebsiella pneumoniae GN 4081 (µg/mL)
Give the number; µg/mL is assumed, so skip it.

// below: answered molecules
CCCN1CCN(C(=O)NC(C(=O)NC2C(=O)N3C2SC(C)(C)C3C(=O)O)c2ccccc2)C(=O)C1=O (single isomer, unassigned) [Compound 38] : 50
CCCCCCN1CCN(C(=O)NC(C(=O)NC2C(=O)N3C2SC(C)(C)C3C(=O)O)c2ccccc2)C(=O)C1=O (single isomer, unassigned) [Compound 46] : 12.5

Query :: Reported MIC Klebsiella pneumoniae GN 4081 for CN1CCN(C(=O)NC(C(=O)NC2C(=O)N3C2SC(C)(C)C3C(=O)O)c2ccccc2)C(=O)C1=O (single isomer, unassigned) [Compound 37] : what is it?
Result :: 200

Query :: Reported MIC Klebsiella pneumoniae GN 4081 for CC(C)N1CCN(C(=O)NC(C(=O)NC2C(=O)N3C2SC(C)(C)C3C(=O)O)c2ccccc2)C(=O)C1=O (single isomer, unassigned) [Compound 40] : what is it?
Result :: 100

====

List of Relative activity (%) against β-lactamase, Pr. vulgaris GN 76 values.
Target: β-lactamase, Proteus vulgaris GN 76 (Proteus vulgaris, UniProt P52664)
Construct: By using the supernatant of enzyme fluid; endogenous in cells; host or cells: Proteus vulgaris GN 76 (penicillin G-induced cells, sonicated, 15,000 r.p.m. supernatant)
Sequence (P52664 30-300): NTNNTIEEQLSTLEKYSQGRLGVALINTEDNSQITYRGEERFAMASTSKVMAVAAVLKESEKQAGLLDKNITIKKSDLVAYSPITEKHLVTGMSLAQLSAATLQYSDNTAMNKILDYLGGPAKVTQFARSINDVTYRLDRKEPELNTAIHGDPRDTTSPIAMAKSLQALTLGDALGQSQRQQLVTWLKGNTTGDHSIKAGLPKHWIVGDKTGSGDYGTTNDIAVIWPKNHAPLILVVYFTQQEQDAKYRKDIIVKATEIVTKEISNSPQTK
Experiment: Resistant activity against β-lactamase, iodometric assay
Type: biochemical
Conditions: control Cephalorizine = 100
Give the number; % is assumed, so skip it.

// below: answered compounds
CCCCN1CCN(C(=O)NC(C(=O)NC2C(=O)N3C(C(=O)O)=C(CSc4nnnn4C)CSC23)c2ccccc2)C(=O)C1=O (single isomer, unassigned) [Compound No. 73] : 4
CCCCCCCCN1CCN(C(=O)N[C@@H](C(=O)NC2C(=O)N3C(C(=O)O)=C(CSc4nnnn4C)CSC23)c2ccccc2)C(=O)C1=O (single isomer, unassigned) [Compound No. 74] : 5
CCN1CCN(C(=O)NC(C(=O)NC2C(=O)N3C(C(=O)O)=C(COC(C)=O)CSC23)c2ccc(O)cc2)C(=O)C1=O (single isomer, unassigned) [Compound No. 81] : 6
CC(=O)OCC1=C(C(=O)O)N2C(=O)[C@@H](NC(=O)Cc3cccs3)[C@H]2SC1 [Sodium Cephalothin, reference compound] : 105

Query :: Reported Relative activity (%) against β-lactamase, Pr. vulgaris GN 76 for CCN1CCN(C(=O)NC(C(=O)NC2C(=O)N3C(C(=O)O)=C(CSc4nnc(C)s4)CSC23)c2ccc(O)cc2)C(=O)C1=O (single isomer, unassigned) [Compound No. 76] : what is it?
Result :: 11
